target: α-Mannosidase (Jack bean) (Canavalia ensiformis, UniProt C0HJB3)
Sequence (C0HJB3 1-981): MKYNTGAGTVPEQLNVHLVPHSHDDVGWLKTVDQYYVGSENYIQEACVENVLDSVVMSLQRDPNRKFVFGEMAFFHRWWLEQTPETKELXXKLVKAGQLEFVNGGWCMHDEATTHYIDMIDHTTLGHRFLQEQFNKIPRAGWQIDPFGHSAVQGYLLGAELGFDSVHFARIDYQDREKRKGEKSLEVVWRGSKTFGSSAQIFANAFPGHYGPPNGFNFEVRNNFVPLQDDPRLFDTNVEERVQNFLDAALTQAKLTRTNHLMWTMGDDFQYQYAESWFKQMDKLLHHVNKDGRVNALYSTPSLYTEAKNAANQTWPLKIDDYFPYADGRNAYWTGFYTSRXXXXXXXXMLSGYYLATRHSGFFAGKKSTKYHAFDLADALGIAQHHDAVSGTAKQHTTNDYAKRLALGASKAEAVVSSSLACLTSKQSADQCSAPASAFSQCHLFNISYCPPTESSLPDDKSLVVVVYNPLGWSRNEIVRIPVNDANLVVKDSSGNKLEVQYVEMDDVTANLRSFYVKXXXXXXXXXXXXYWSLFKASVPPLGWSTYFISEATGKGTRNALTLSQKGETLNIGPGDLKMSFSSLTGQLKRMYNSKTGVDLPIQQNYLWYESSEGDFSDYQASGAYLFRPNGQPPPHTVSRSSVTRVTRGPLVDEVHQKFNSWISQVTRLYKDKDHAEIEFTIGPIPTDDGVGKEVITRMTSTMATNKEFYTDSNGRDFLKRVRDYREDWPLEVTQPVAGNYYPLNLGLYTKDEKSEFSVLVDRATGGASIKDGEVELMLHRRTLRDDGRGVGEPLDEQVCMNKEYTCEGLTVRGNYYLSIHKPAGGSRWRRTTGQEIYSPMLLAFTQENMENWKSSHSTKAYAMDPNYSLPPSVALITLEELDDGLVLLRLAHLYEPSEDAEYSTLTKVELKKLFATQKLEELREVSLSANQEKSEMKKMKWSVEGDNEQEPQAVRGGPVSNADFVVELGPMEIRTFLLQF
measureName: IC50
Include the unit right after the number.

Req: Give a short answer stating reported IC50 for CN[C@@H]1[C@@H](O)[C@@H](O)[C@H](O)[C@H]1CO .
Resp: 62.1 nM

Value source: patent EP0451834B1
